assay-method-text: Cytotoxicity assay (CellTiter-Glo, 72 h), SKOV-3
Assay type: cell-based, human
measurement-setup: human, SKOV-3 ovarian adenocarcinoma cells, conc 3.125 uM; raw replicate data; read-out: SKOV3 viability (%)
// reported viability at 72 h, 3.125 uM for each item listed

| compound | viability at 72 h, 3.125 uM / % |
| --- | --- |
| CO[C@H]1C[C@@H]2CC[C@@H](C)[C@@](O)(O2)C(=O)C(=O)N2CCCC[C@H]2C(=O)O[C@H]([C@H](C)C[C@@H]2CC[C@@H](O)[C@H](OC)C2)CC(=O)[C@H](C)/C=C(\C)[C@@H](O)CC(=O)[C@H](C)C[C@H](C)/C=C/C=C(C)/C=C/1C | 102 |
| COC1CC2CCC(C)C(O)(O2)C(=O)C(=O)N2CCCCC2C(=O)OC(C(C)CC2CCC(O)C(OC)C2)CC(=O)C(C)C=C(C)C(O)C(OC)C(=O)C(C)CC(C)C=CCCC=C1C (stereo not drawn) | 72.5 |
| CO[C@H]1C[C@@H]2CC[C@@H](C)[C@@](O)(O2)C(=O)C(=O)N2CCCC[C@H]2C(=O)O[C@H]([C@H](C)C[C@@H]2CC[C@@H](O)[C@H](OC)C2)CC(=O)[C@H](C)/C=C(\C)[C@@H](O)CC[C@H](C)/C=C/C=C/C=C/1C | 59.9 |
| CO[C@@H]1C[C@H](C[C@@H](C)[C@@H]2CC(=O)[C@H](C)/C=C(\C)[C@@H](O)[C@@H](OC)C(=O)[C@H](C)C[C@H](C)/C=C/C=C/C=C(\C)[C@H](O)C[C@@H]3CC[C@@H](C)[C@@](O)(O3)C(=O)C(=O)N3CCCC[C@H]3C(=O)O2)CC[C@H]1O [Compound 17, (16R)-16-O-demethyl rapamycin] | 67.3 |
| CO[C@@H]1/C=C/C=C/[C@@H](C)C[C@@H](C)C(=O)C[C@H](O)/C(C)=C/[C@@H](C)C(=O)C[C@@H]([C@H](C)C[C@@H]2CC[C@@H](O)[C@H](OC)C2)OC(=O)[C@@H]2CCCCN2C(=O)C(=O)[C@]2(O)O[C@@H](CC[C@H]2C)C1 | 65.5 |
| CO[C@H]1C[C@@H]2CC[C@@H](C)[C@@](O)(O2)C(=O)C(=O)N2CCCC[C@H]2C(=O)O[C@H]([C@H](C)C[C@@H]2CC[C@@H](O)[C@H](OC)C2)CC(=O)[C@H](C)/C=C(\C)[C@@H](O)[C@@H](OC)C(=O)[C@H](C)C[C@H](C)/C=C/C=C/C=C/1C [Compound 1, rapamycin, reference compound] | 57.4 |
| COC1CC2CCC(C)C(O)(O2)C(=O)C(=O)N2CCCCC2C(=O)OC(C(C)CC2CCC(O)C(OC)C2)CC(O)CC(=O)C(C)C=C(C)C(O)CC(=O)C(C)CC(C)C=CC=CC=C1C (stereo not drawn) | 67.3 |
| COC1CC2CCC(C)C(O)(O2)C(=O)C(=O)N2CCCCC2C(=O)OC(C(C)CC2CCC(O)C(OC)C2)CCC(C)C=C(C)C(O)C(OC)C(=O)C(C)CC(C)C=CC=CC=C1C (stereo not drawn) | 57.8 |
| COC1CC2CCC(C)C(O)(O2)C(=O)C(=O)N2CCCCC2C(=O)OC(C(C)CC2CCC(O)C(OC)C2)CC(=O)C(C)C=C(C)C(O)CC(=O)C(C)C=C(C)C=CC=CC=C1C (stereo not drawn) | 84.5 |
